format: in vivo, C57BL/6J mice; conditions: male, C57BL/6J, mouse, plasma, ip, 50 mg/kg
Property Measured: AUC(0-inf) (ng·h/mL)

• O=C(CCCCCCC(=O)Nc1ccccc1)NO [vorinostat, suberoylanilide hydroxamic acid] = 7600

---

type: in vivo, C57BL/6J mice; conditions: male, C57BL/6J, mouse, plasma, ip, 50 mg/kg
Property Measured: half-life

* O=C(CCCCCCC(=O)Nc1ccccc1)NO [vorinostat, suberoylanilide hydroxamic acid] | 40.8 min

---

type: in vivo, C57BL/6J mice; conditions: male, C57BL/6J, mouse, plasma, ip, 50 mg/kg
Property Measured: AUC(0-t) (ng·h/mL)

- O=C(CCCCCCC(=O)Nc1ccccc1)NO [vorinostat, suberoylanilide hydroxamic acid]: 7540

---

assay type: in vivo, C57BL/6J mice; settings: male, C57BL/6J, mouse, liver, ip, 50 mg/kg
Property Measured: Tmax (min)

• O=C(CCCCCCC(=O)Nc1ccccc1)NO [vorinostat, suberoylanilide hydroxamic acid] = 15

---

format: in vivo, C57BL/6J mice; details: male, C57BL/6J, mouse, plasma, ip, 50 mg/kg
Property Measured: Cmax (ng/mL)

• O=C(CCCCCCC(=O)Nc1ccccc1)NO [vorinostat, suberoylanilide hydroxamic acid] = 10500
